Entry source: PubChem BioAssay AID1963424

- Tested on: 327498-153-R-J2-PDC complex spheroid growth, % test/control
- assay overview: Anticancer human tumor 327498-153-R-J2-PDC patient-derived uterine carcinosarcoma cell line growth inhibition [Asc]
- condition set: compound alone; run of 10/03/2022
pIC50: −log10 of the molar value.
quantity name: pIC50

# molecule, result value
records = [
    ("CNC(C)C(=O)NC1CN(S(=O)(=O)c2cccc(S(=O)(=O)N3CCC4CCC(C(=O)NC(c5ccccc5)c5ccccc5)N4C(=O)C(NC(=O)C(C)NC)C3)c2)CCC2CCC(C(=O)NC(c3ccccc3)c3ccccc3)N2C1=O (stereo unspecified)", "< 6.00"),
]

* * *

In this section, each of the compounds is paired with its reported viability, T/C.
- System: 327498-153-R-J2-PDC complex spheroid growth, % test/control
- assay overview: Anticancer human tumor 327498-153-R-J2-PDC cell line growth inhibition [Asc];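 note: spheroids exposed to compound for 7 days after 3 days of growth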;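 for viability, T/C: 100% = DMSO vehicle control wells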
- condition set: second compound 3 µM; first compound 0.01 µM; stronger effect = lower value

# compound, viability, T/C
records = [
    ("Cn1ncnc1[C@H]1c2n[nH]c(=O)c3cc(F)cc(c23)N[C@@H]1c1ccc(F)cc1 + CCN1C(C(=O)NC23CCC(C(=O)O)(CC2)CC3)C(c2cccc(Cl)c2F)C2(C(=O)Nc3cc(Cl)ccc32)C12CCCCC2", "2.59%"),
    ("CNC(C)C(=O)NC1CN(S(=O)(=O)c2cccc(S(=O)(=O)N3CCC4CCC(C(=O)NC(c5ccccc5)c5ccccc5)N4C(=O)C(NC(=O)C(C)NC)C3)c2)CCC2CCC(C(=O)NC(c3ccccc3)c3ccccc3)N2C1=O (stereo unspecified) + CCN1C(C(=O)NC23CCC(C(=O)O)(CC2)CC3)C(c2cccc(Cl)c2F)C2(C(=O)Nc3cc(Cl)ccc32)C12CCCCC2", "2.08%"),
    ("COc1c(OCCCN2CCOCC2)ccc2c3n(c(=NC(=O)c4cnc(N)nc4)nc12)CCN3 + CCN1C(C(=O)NC23CCC(C(=O)O)(CC2)CC3)C(c2cccc(Cl)c2F)C2(C(=O)Nc3cc(Cl)ccc32)C12CCCCC2", "3.3%"),
    ("NC1CCC(NC2CC2c2ccccc2)CC1 (stereo unspecified) + CCN1C(C(=O)NC23CCC(C(=O)O)(CC2)CC3)C(c2cccc(Cl)c2F)C2(C(=O)Nc3cc(Cl)ccc32)C12CCCCC2", "7.42%"),
    ("O=C(c1ccc(F)c(F)c1Nc1ccc(I)cc1F)N1CC(O)([C@@H]2CCCCN2)C1 + CCN1C(C(=O)NC23CCC(C(=O)O)(CC2)CC3)C(c2cccc(Cl)c2F)C2(C(=O)Nc3cc(Cl)ccc32)C12CCCCC2", "1.87%"),
    ("CCN1CCN(Cc2ccc(Nc3ncc(F)c(-c4cc(F)c5nc(C)n(C(C)C)c5c4)n3)nc2)CC1 + CCN1C(C(=O)NC23CCC(C(=O)O)(CC2)CC3)C(c2cccc(Cl)c2F)C2(C(=O)Nc3cc(Cl)ccc32)C12CCCCC2", "3.67%"),
]

* * *

- System: 327498-153-R-J2-PDC complex spheroid growth, % test/control
- assay overview: Anticancer human tumor 327498-153-R-J2-PDC cell line growth inhibition [Asc];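 note: spheroids exposed to compound for 7 days after 3 days of growth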;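 for viability, T/C: 100% = DMSO vehicle control wells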
- condition set: second compound 0.3 µM; first compound 0.01 µM; stronger effect = lower value
In this section, each of the molecules is paired with its reported viability, T/C.
quantity name: viability, T/C (%)

# molecule, quantity name, value unit, result value
measured = [
    ("CCN1CCN(Cc2ccc(Nc3ncc(F)c(-c4cc(F)c5nc(C)n(C(C)C)c5c4)n3)nc2)CC1 + CCN1C(C(=O)NC23CCC(C(=O)O)(CC2)CC3)C(c2cccc(Cl)c2F)C2(C(=O)Nc3cc(Cl)ccc32)C12CCCCC2", "viability, T/C", "%", 26.6),
    ("CNC(C)C(=O)NC1CN(S(=O)(=O)c2cccc(S(=O)(=O)N3CCC4CCC(C(=O)NC(c5ccccc5)c5ccccc5)N4C(=O)C(NC(=O)C(C)NC)C3)c2)CCC2CCC(C(=O)NC(c3ccccc3)c3ccccc3)N2C1=O (stereo unspecified) + CCN1C(C(=O)NC23CCC(C(=O)O)(CC2)CC3)C(c2cccc(Cl)c2F)C2(C(=O)Nc3cc(Cl)ccc32)C12CCCCC2", "viability, T/C", "%", 36.5),
    ("O=C(c1ccc(F)c(F)c1Nc1ccc(I)cc1F)N1CC(O)([C@@H]2CCCCN2)C1 + CCN1C(C(=O)NC23CCC(C(=O)O)(CC2)CC3)C(c2cccc(Cl)c2F)C2(C(=O)Nc3cc(Cl)ccc32)C12CCCCC2", "viability, T/C", "%", 29.1),
    ("NC1CCC(NC2CC2c2ccccc2)CC1 (stereo unspecified) + CCN1C(C(=O)NC23CCC(C(=O)O)(CC2)CC3)C(c2cccc(Cl)c2F)C2(C(=O)Nc3cc(Cl)ccc32)C12CCCCC2", "viability, T/C", "%", 39.1),
    ("COc1c(OCCCN2CCOCC2)ccc2c3n(c(=NC(=O)c4cnc(N)nc4)nc12)CCN3 + CCN1C(C(=O)NC23CCC(C(=O)O)(CC2)CC3)C(c2cccc(Cl)c2F)C2(C(=O)Nc3cc(Cl)ccc32)C12CCCCC2", "viability, T/C", "%", 33.8),
    ("Cn1ncnc1[C@H]1c2n[nH]c(=O)c3cc(F)cc(c23)N[C@@H]1c1ccc(F)cc1 + CCN1C(C(=O)NC23CCC(C(=O)O)(CC2)CC3)C(c2cccc(Cl)c2F)C2(C(=O)Nc3cc(Cl)ccc32)C12CCCCC2", "viability, T/C", "%", 6.36),
]

* * *

- Test system: 327498-153-R-J2-PDC complex spheroid growth, % test/control
- assay overview: Anticancer human tumor 327498-153-R-J2-PDC cell line growth inhibition [Asc];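 note: spheroids exposed to compound for 7 days after 3 days of growth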;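 for viability, T/C: 100% = DMSO vehicle control wells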
- condition set: second compound 0.316 µM; first compound 0.316 µM; stronger effect = lower value

# molecule, study target, viability, T/C
data = [
    ("C=CC(=O)N1CCN(c2nc(=O)n(-c3c(C)ccnc3C(C)C)c3nc(-c4c(O)cccc4F)c(F)cc23)C(C)C1 (stereo not drawn) + CNC(C)C(=O)NC1CN(S(=O)(=O)c2cccc(S(=O)(=O)N3CCC4CCC(C(=O)NC(c5ccccc5)c5ccccc5)N4C(=O)C(NC(=O)C(C)NC)C3)c2)CCC2CCC(C(=O)NC(c3ccccc3)c3ccccc3)N2C1=O", "327498-153-R-J2-PDC complex spheroid growth, % test/control", "80.7%"),
    ("COc1c(OCCCN2CCOCC2)ccc2c3n(c(=NC(=O)c4cnc(N)nc4)nc12)CCN3 + Cc1c(S(C)(=O)=O)c(-c2cc(F)cc(N3CCN(c4ccc(NS(=O)(=O)c5ccc(NC(CCN6CCC(C(=O)OCCCP(=O)(O)O)CC6)CSc6ccccc6)c(S(=O)(=O)C(F)(F)F)c5)cc4)CC3)c2)c(-c2ccc(Cl)cc2)n1C(C)C", "327498-153-R-J2-PDC complex spheroid growth, % test/control", "18.9%"),
    ("CCN1CCN(Cc2ccc(Nc3ncc(F)c(-c4cc(F)c5nc(C)n(C(C)C)c5c4)n3)nc2)CC1 + CNC(C)C(=O)NC1CN(S(=O)(=O)c2cccc(S(=O)(=O)N3CCC4CCC(C(=O)NC(c5ccccc5)c5ccccc5)N4C(=O)C(NC(=O)C(C)NC)C3)c2)CCC2CCC(C(=O)NC(c3ccccc3)c3ccccc3)N2C1=O", "327498-153-R-J2-PDC complex spheroid growth, % test/control", "65.8%"),
]

* * *

- Tested on: 327498-153-R-J2-PDC complex spheroid growth, % test/control
- assay overview: Anticancer human tumor 327498-153-R-J2-PDC cell line growth inhibition [Asc];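 note: spheroids exposed to compound for 7 days after 3 days of growth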;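 for viability, T/C: 100% = DMSO vehicle control wells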
- condition set: second compound 1 µM; first compound 0.316 µM; stronger effect = lower value
quantity name: viability, T/C (%)

# compound, value unit, result value
rows = [
    ("C#Cc1c(F)ccc2cc(O)cc(-c3ncc4c(N5CC6CCC(C5)N6)nc(OCC56CCCN5CC(F)C6)nc4c3F)c12 (stereo not given) + CNC(C)C(=O)NC1CN(S(=O)(=O)c2cccc(S(=O)(=O)N3CCC4CCC(C(=O)NC(c5ccccc5)c5ccccc5)N4C(=O)C(NC(=O)C(C)NC)C3)c2)CCC2CCC(C(=O)NC(c3ccccc3)c3ccccc3)N2C1=O", "%", 97),
    ("O=C(c1ccc(F)c(F)c1Nc1ccc(I)cc1F)N1CC(O)([C@@H]2CCCCN2)C1 + Cc1c(S(C)(=O)=O)c(-c2cc(F)cc(N3CCN(c4ccc(NS(=O)(=O)c5ccc(NC(CCN6CCC(C(=O)OCCCP(=O)(O)O)CC6)CSc6ccccc6)c(S(=O)(=O)C(F)(F)F)c5)cc4)CC3)c2)c(-c2ccc(Cl)cc2)n1C(C)C", "%", 49),
    ("C=C(F)C(=O)N1CCN(c2nc(OCC3CCCN3C)nc3c2CCN(c2cccc4cccc(Cl)c24)C3)CC1CC#N (stereo not given) + CNC(C)C(=O)NC1CN(S(=O)(=O)c2cccc(S(=O)(=O)N3CCC4CCC(C(=O)NC(c5ccccc5)c5ccccc5)N4C(=O)C(NC(=O)C(C)NC)C3)c2)CCC2CCC(C(=O)NC(c3ccccc3)c3ccccc3)N2C1=O", "%", 66.3),
    ("O=C(c1cc(Cc2n[nH]c(=O)c3ccccc23)ccc1F)N1CCN(C(=O)C2CC2)CC1 + Cc1c(S(C)(=O)=O)c(-c2cc(F)cc(N3CCN(c4ccc(NS(=O)(=O)c5ccc(NC(CCN6CCC(C(=O)OCCCP(=O)(O)O)CC6)CSc6ccccc6)c(S(=O)(=O)C(F)(F)F)c5)cc4)CC3)c2)c(-c2ccc(Cl)cc2)n1C(C)C", "%", 86.9),
    ("COc1c(OCCCN2CCOCC2)ccc2c3n(c(=NC(=O)c4cnc(N)nc4)nc12)CCN3 + Cc1c(S(C)(=O)=O)c(-c2cc(F)cc(N3CCN(c4ccc(NS(=O)(=O)c5ccc(NC(CCN6CCC(C(=O)OCCCP(=O)(O)O)CC6)CSc6ccccc6)c(S(=O)(=O)C(F)(F)F)c5)cc4)CC3)c2)c(-c2ccc(Cl)cc2)n1C(C)C", "%", 20.8),
]
